meta.source: patent US11292807B2

Test system: MDA-MB
condition_set: human, 72 h, 100 ug/mL
observable: Average cell viability (%)

| molecule | observable | measured_number |
| --- | --- | --- |
| CC/C=C\C/C=C\C/C=C\C/C=C\C/C=C\CCCC(=O)OCC(COC1OC(CO)C(O)C(O)C1O)OC(=O)CCCCCCCCCCCCCCC (stereo not shown) [Compound 2, MGDG C20:5/C16:0] | Average cell viability | 20 |

###

Test system: A549 (lung carcinoma)
assay_details: CIMA assay (colorimetric indicator of metabolic activity), cell viability, A549
condition_set: A549, 50 ug/mL; listed as 169-14-15-4; unit assumed

| compound | units_label | Average cell viability |
| --- | --- | --- |
| CC/C=C\C/C=C\C/C=C\C/C=C\C/C=C\CCCC(=O)OCC(COC1OC(CO)C(O)C(O)C1O)OC(=O)CCCCCCCCCCCCCCC (stereo not shown) | % | 84 |

###

assay_details: CIMA assay, cell viability, CCD1079SK
condition_set: human, CCD1079SK fibroblast cells (noncancerous, proliferating), Average cell viability, CCD, 1 ug/mL
observable: viability at 72 h, 1 ug/mL (%)

| molecule | observable | measured_number |
| --- | --- | --- |
| CCCCCCCCCCCCCCCC(=O)OCC(COC1OC(CO)C(O)C(O)C1O)OC(=O)CCCCCCCCCCCCC (centres unmarked) [Compound 16, MGDG C16:0/C14:0] | viability at 72 h, 1 ug/mL | 106 |
| CC/C=C\C/C=C\C/C=C\C/C=C\C/C=C\CCCC(=O)OCC(O)COC1OC(CO)C(O)C(O)C1O (centres unmarked) [Compound 13, lyso-MGDG C20:5] | viability at 72 h, 1 ug/mL | 103 |
| CC/C=C\C/C=C\C/C=C\C/C=C\CCC(=O)OC(COC(=O)CCCCCCC/C=C\C/C=C\C/C=C\CC)COC1OC(CO)C(O)C(O)C1O (centres unmarked) [Compound 14, MGDG C18:3/C16:4] | viability at 72 h, 1 ug/mL | 102 |
| CC/C=C\C/C=C\C/C=C\C/C=C\C/C=C\CCCC(=O)OCC(COC1OC(CO)C(O)C(O)C1O)OC(=O)CCC/C=C\C/C=C\C/C=C\C/C=C\C/C=C\CC (centres unmarked) [Compound 7, MGDG C20:5/C20:5] | viability at 72 h, 1 ug/mL | 103 |
| CC/C=C\C/C=C\C/C=C\C/C=C\C/C=C\CCCC(=O)OCC(COC1OC(CO)C(O)C(O)C1O)OC(=O)CCCCCCCCCCCCCCC (centres unmarked) [Compound 2, MGDG C20:5/C16:0] | viability at 72 h, 1 ug/mL | 107 |

###

Tested on: U373 (glioblastoma-astrocytoma)
assay_details: CIMA assay, cell viability, U373
condition_set: Homo sapiens, U373 MG, read-out: Average cell viability, U373; 10 ug/mL
Listed here are compounds together with their documented viability at 10 µg/mL.
observable: viability at 10 µg/mL (%)

| compound | observable | units_label | measured_number |
| --- | --- | --- | --- |
| CC/C=C\C/C=C\C/C=C\C/C=C\C/C=C\CCCC(=O)OCC(COC1OC(CO)C(O)C(O)C1O)OC(=O)CCC/C=C\C/C=C\C/C=C\C/C=C\C/C=C\CC (stereo not drawn) [Compound 7, MGDG C20:5/C20:5] | viability at 10 µg/mL | % | 108 |
| CCCCC/C=C\C/C=C\CCCCCCCC(=O)O [Compound 20, linoleic acid] | viability at 10 µg/mL | % | 89 |
| CC/C=C\C/C=C\C/C=C\CCCCCCCC(=O)O [Compound 19, α-linolenic acid] | viability at 10 µg/mL | % | 108 |
| CC/C=C\C/C=C\C/C=C\C/C=C\C/C=C\CCCC(=O)OCC(O)COC1OC(CO)C(O)C(O)C1O (stereo not drawn) [Compound 13, lyso-MGDG C20:5] | viability at 10 µg/mL | % | 100 |
| CCCCCCCCCCCCCCCC(=O)OCC(COC1OC(CO)C(O)C(O)C1O)OC(=O)CCCCCCCCCCCCC (stereo not drawn) [Compound 16, MGDG C16:0/C14:0] | viability at 10 µg/mL | % | 95 |
| CC/C=C\C/C=C\C/C=C\C/C=C\CCC(=O)OC(COC(=O)CCCCCCC/C=C\C/C=C\C/C=C\CC)COC1OC(CO)C(O)C(O)C1O (stereo not drawn) [Compound 14, MGDG C18:3/C16:4] | viability at 10 µg/mL | % | 100 |

###

Tested on: A549 (lung carcinoma)
assay_details: CIMA assay (colorimetric indicator of metabolic activity), cell viability, A549
condition_set: A549, 100 ug/mL; listed as 174-13-14-3; unit assumed

| molecule | tested_on | Average cell viability (%) |
| --- | --- | --- |
| CC/C=C\C/C=C\C/C=C\C/C=C\C/C=C\CCCC(=O)OCC(COC1OC(CO)C(O)C(O)C1O)OC(=O)CCCCCCCCCCCCCCC (stereo not shown) [Compound 2, MGDG C20:5/C16:0] | A549 (lung carcinoma) | 35 |

###

System: CCD1079SK (fibroblast, noncancerous but proliferating)
assay_details: CIMA assay, cell viability, CCD1079SK
condition_set: CCD; 100 ug/mL

| molecule | Fold change in viability AVG |
| --- | --- |
| CC/C=C\C/C=C\C/C=C\C/C=C\CCC(=O)OC(COC(=O)CCCCCCC/C=C\C/C=C\C/C=C\CC)COC1OC(CO)C(O)C(O)C1O (stereo not shown) [Compound 14, MGDG C18:3/C16:4] | 0.21 |
| CC/C=C\C/C=C\C/C=C\CCCCCCCC(=O)O [Compound 19, α-linolenic acid] | 0.23 |
| CCCCC/C=C\C/C=C\CCCCCCCC(=O)O [Compound 20, linoleic acid] | 0.06 |
| CC/C=C\C/C=C\C/C=C\C/C=C\C/C=C\CCCC(=O)OCC(O)COC1OC(CO)C(O)C(O)C1O (stereo not shown) [Compound 13, lyso-MGDG C20:5] | 0.15 |

###

Test system: U373 (glioblastoma-astrocytoma)
assay_details: CIMA assay, cell viability, U373
condition_set: U373; positive control 250 ug/ml

| compound | tested_on | Average cell viability, % |
| --- | --- | --- |
| CCCCCCCCCCCCOS(=O)(=O)[O-].[Na+] [SDS, reference compound] | U373 (glioblastoma-astrocytoma) | 4 |

###

Tested on: THP-1 (acute monocytic leukemia)
assay_details: CIMA assay, cell viability, THP-1
condition_set: THP-1; 1 ug/mL
observable: Fold change in viability AVG

| compound | measured_number |
| --- | --- |
| CC/C=C\C/C=C\C/C=C\C/C=C\C/C=C\CCCC(=O)OCC(COC1OC(CO)C(O)C(O)C1O)OC(=O)CCC/C=C\C/C=C\C/C=C\C/C=C\C/C=C\CC (stereo not drawn) [Compound 7, MGDG C20:5/C20:5] | 1.17 |
| CCCCC/C=C\C/C=C\CCCCCCCC(=O)O [Compound 20, linoleic acid] | 1.04 |
| CC/C=C\C/C=C\C/C=C\C/C=C\C/C=C\CCCC(=O)OCC(O)COC1OC(CO)C(O)C(O)C1O (stereo not drawn) [Compound 13, lyso-MGDG C20:5] | 1.19 |
| CCCCCCCCCCCCCCCC(=O)OCC(COC1OC(CO)C(O)C(O)C1O)OC(=O)CCCCCCCCCCCCC (stereo not drawn) [Compound 16, MGDG C16:0/C14:0] | 1.14 |
| CC/C=C\C/C=C\C/C=C\C/C=C\CCC(=O)OC(COC(=O)CCCCCCC/C=C\C/C=C\C/C=C\CC)COC1OC(CO)C(O)C(O)C1O (stereo not drawn) [Compound 14, MGDG C18:3/C16:4] | 1.12 |
| CC/C=C\C/C=C\C/C=C\CCCCCCCC(=O)O [Compound 19, α-linolenic acid] | 1.16 |

###

Listed here are compounds together with their documented PC3 AVG.
Tested on: PC3
assay_details: CIMA assay, cell viability, PC3
condition_set: PC3, sample at 50 ug/mL

| compound | PC3 AVG |
| --- | --- |
| CC/C=C\C/C=C\C/C=C\C/C=C\C/C=C\CCCC(=O)OCC(O)COC1OC(CO)C(O)C(O)C1O (centres unmarked) | 0.16 |
| CCCCC/C=C\C/C=C\CCCCCCCC(=O)O | 0.12 |
| CC/C=C\C/C=C\C/C=C\C/C=C\C/C=C\CCCC(=O)OCC(COC1OC(CO)C(O)C(O)C1O)OC(=O)CCC/C=C\C/C=C\C/C=C\C/C=C\C/C=C\CC (centres unmarked) | 0.14 |
| CC/C=C\C/C=C\C/C=C\C/C=C\CCC(=O)OC(COC(=O)CCCCCCC/C=C\C/C=C\C/C=C\CC)COC1OC(CO)C(O)C(O)C1O (centres unmarked) | 0.68 |
| CC/C=C\C/C=C\C/C=C\CCCCCCCC(=O)O | 0.91 |
